system: CD2F1 mice, L1210 leukemia ip, survival T/C; assay: NCI In Vivo Anticancer Drug Screen. Data for tumor model L1210 Leukemia (intraperitoneal) in CD2F1 (CDF1) mice; details: endpoint: mean survival time; dose: 100.0 mg/kg/injection; schedule: Q01DX009 (ip); vehicle: Klucel (hydroxypropylcellulose) (HPC)
Inconclusive results and toxic doses are left out. Rule for the calls: active = survival T/C of 150% or more; inactive = T/C below 125% in these data.
Classes used: 1 (active), -1 (inactive)

                                    compound  group
 0  CS(=O)(=O)OCC(/C=C/C(COS(C)(=O)=O)OS(C)(=O)=O)OS(C)(=O)=O (stereo unspecified)      1
 1  O=[N+]([O-])c1ccc(N=Cc2ccc3c(c2)OCO3)c(Br)c1     -1
 2                     O=C1c2ccccc2C(=O)N1Cl     -1
 3                          N#Cc1ccc(CCl)cc1     -1
 4  O=c1[nH]c(SCc2ccc(Cl)cc2)nc(-c2ccc(Cl)cc2)c1CCO     -1
 5                           CC1=NNC(C)(C)C1     -1
 6               Cc1ccc(Cl)cc1NC(=O)Nc1nccs1     -1
 7       NC(=S)N/N=C/c1cc([N+](=O)[O-])ccc1O     -1
 8  CC1CN=C(c2ccc(NC(=O)c3ccc(C(=O)Nc4ccc(C5=NCC(C)N5)cc4)cc3)cc2)N1 (stereo unspecified)      1
 9  CC(=O)OC1CCC2(C)C(=CCC3C2CCC2(C)C(C(C)CCCC(C)C)CCC32)C1 (stereo unspecified)     -1
10            O=C(/C=C/c1ccc(Cl)cc1)c1ccccc1     -1
11  C[C@]12CCC(=O)C(O)=C1CC[C@@H]1[C@@H]2CC[C@]2(C)C(=O)CC[C@@H]12     -1
12  C1=NC(c2ccccn2)=NNC(c2ccccn2)=C1c1ccccc1     -1
13  O=C(/C=C1\C(=O)Nc2ccccc21)/C=C1/C(=O)Nc2ccccc21     -1
14                    COc1cccc(CCC(=O)O)c1OC     -1
15  C=CCN(CC=C)Cc1cccc(N(CCCl)CCCl)c1 (tested in a mixture with another compound)     -1

###

test system: CD2F1 mice, L1210 leukemia ip, survival T/C; assay: NCI In Vivo Anticancer Drug Screen. Data for tumor model L1210 Leukemia (intraperitoneal) in CD2F1 (CDF1) mice; conditions: endpoint: mean survival time; dose: 400.0 mg/kg/injection; schedule: Q01DX009 (ip); vehicle: saline; higher = longer survival
Toxic doses and inconclusive results are not listed.
Listed below: T/C values for each entry.
recorded_metric: T/C

compound	measured_on	obs_value
CC12OC3(C)C4C(O)C1C1(C)OC4(C)C3C(O)C21 (stereo not drawn)	CD2F1 mice, L1210 leukemia ip, survival T/C	98 % of control
N#CC1C=Cc2ccccc2N1C(=O)Oc1ccccc1 (stereo not drawn)	CD2F1 mice, L1210 leukemia ip, survival T/C	89 % of control
CCCCC(C(=O)O)c1ccccc1 (stereo not drawn)	CD2F1 mice, L1210 leukemia ip, survival T/C	101 % of control
Cc1cn(C2CC(O)C(CO)O2)c(=O)[nH]c1=O (stereo not drawn)	CD2F1 mice, L1210 leukemia ip, survival T/C	92 % of control
COC(=O)C1(c2ccccn2)CCN(C)CC1	CD2F1 mice, L1210 leukemia ip, survival T/C	101 % of control
O=C(O)CCC(=O)Nc1cccc(Oc2ccc([N+](=O)[O-])cc2[N+](=O)[O-])c1	CD2F1 mice, L1210 leukemia ip, survival T/C	100 % of control
COC1C(O)CC(=O)OC(C)C/C=C/C=C/C(OC2CCC(N(C)C)C(C)O2)C(C)CC(CC=O)C1OC1OC(C)C(OC2CC(C)(O)C(O)C(C)O2)C(N(C)C)C1O (stereo not drawn)	CD2F1 mice, L1210 leukemia ip, survival T/C	98 % of control
O=S(=O)(O)c1cncc(S(=O)(=O)O)n1	CD2F1 mice, L1210 leukemia ip, survival T/C	100 % of control
CC(CC(=O)Nc1ccc(S(=O)(=O)F)cc1)c1ccc(N2C(N)=NC(N)=NC2(C)C)cc1 (stereo not drawn)	CD2F1 mice, L1210 leukemia ip, survival T/C	124 % of control
O=C(O)c1cccc(-c2ccccc2)c1	CD2F1 mice, L1210 leukemia ip, survival T/C	93 % of control
O=C(Nc1cccc([N+](=O)[O-])c1)c1cc2ccccc2cc1O	CD2F1 mice, L1210 leukemia ip, survival T/C	98 % of control
CCCCCCCCCCOCCCCCCCCCC	CD2F1 mice, L1210 leukemia ip, survival T/C	97 % of control
Cc1cc2nc3c(=O)[nH]c(=O)nc-3n(CC(O)C(O)C(O)C(O)CO)c2cc1C (stereo not drawn)	CD2F1 mice, L1210 leukemia ip, survival T/C	103 % of control
CCCCCCCCCCCC(=O)N(C)CCS(=O)(=O)O	CD2F1 mice, L1210 leukemia ip, survival T/C	109 % of control
N#CCCN1CCOCC1	CD2F1 mice, L1210 leukemia ip, survival T/C	101 % of control
CN=C(NC)S(=O)O	CD2F1 mice, L1210 leukemia ip, survival T/C	101 % of control
CN(C(N)=O)C1CCCC1	CD2F1 mice, L1210 leukemia ip, survival T/C	107 % of control
O=C(O)CCC1NCCCO1 (stereo not drawn)	CD2F1 mice, L1210 leukemia ip, survival T/C	95 % of control
